Details: 24 °C
Quantity Kind: log10(solubility) (log10 of the value in mM)
# log10 transformed; quantity=solubility; unit=mM

Q. So what's the measured log10(solubility) for this one? Cc1c2ccccc2cc2c1ccc1ccccc12
A. -4.34

Q. Same for O=NN1CCCCC1
A. 2.83

Q. Entry CC=CCCCC please
A. -0.82

Q. Would you kindly repeat that for NC(=O)CCl ?
A. 2.98

Q. Here is the next compound: CN(C)CCCN1c2ccccc2CCc2ccccc21
A. -1.19

Q. Repeat with O=P(OC(CCl)CCl)(OC(CCl)CCl)OC(CCl)CCl
A. -1.79

Q. Further, for O=C1CN(N=Cc2ccc([N+](=O)[O-])o2)C(=O)N1 ?
A. -0.48

Q. What about CC1CCCCC1C (stereo not given) ?
A. -1.13

Q. Also check CC(=O)OCCN1CCN(CCCN2c3ccccc3Sc3ccc(Cl)cc32)CC1
A. -1.70

Q. Entry to check: CC(CN1c2ccccc2Sc2ccccc21)N(C)C (stereo not given)
A. -1.26

Q. Continue with CN(C)CCC=C1c2ccccc2CCc2ccccc21
A. -1.46

Q. Next compound: O=C(O)c1c2ccccc2cc2ccccc12
A. -0.42

Q. Now try CCN(CC)N=O .
A. 3.02

Q. Check CN1CCCC(CN2c3ccccc3Sc3ccccc32)C1 (stereo not given) too.
A. -1.74

Q. How about CCNP(=S)(OC)O/C(C)=C/C(=O)OC(C)C (stereo not given) ?
A. -0.41

###

Conditions: 25 °C
Quantity Kind: log10 solubility (log10 of the value in mM)
Log10 applied to solubility; unit prior to transform: mM.

Q. State the recorded log10 solubility for this entry: OC(c1ccccc1)c1ccccc1
A. 0.45

Q. Now this one: Clc1ccc(Cl)c(-c2cc(Cl)c(Cl)cc2Cl)c1
A. -4.33

Q. // next record CCC(C)Cl (stereo not given)
A. 1.03

Q. Thanks! And c1ccc2cc3cc4ccccc4cc3cc2c1 ?
A. -5.18

Q. Another compound to look at: O=c1cc[nH]c(=S)[nH]1
A. 0.74

Q. Request: CC(=O)Nc1ccccc1
A. 1.71

Q. Another: O=C(O)CCCCCCC(=O)O
A. 1.83

Q. Repeat with Nc1ccc(-c2ccc(N)cc2)cc1
A. 0.24

Q. Cool, now CC(C)(C)C(=O)OCC(=O)[C@@]1(O)CC[C@H]2[C@@H]3CCC4=CC(=O)C=C[C@]4(C)[C@H]3[C@@H](O)C[C@@]21C
A. -1.58

Q. Now consider Cc1ccnc2c1ccc1c(C)ccnc12 .
A. -0.97

Q. How about this compound: Cc1cc2ccccc2cc1C
A. -1.90

Q. What would you report for CC1CCCCC1 ?
A. -0.82

Q. Let us now turn to Cc1ccc(C)nc1
A. 3.18

Q. Entry to check: O=C(O)c1cc(=O)c(O)c(C(=O)O)o1
A. 1.62

Q. Now the compound CCCCCCCI
A. -1.81

###

Settings: 25 °C
Please respond with reported log10 solubility for every item in the list.
Remember, log10 of solubility, in mM.

Q. For the molecule CCCC(C)(C)C , what log10 solubility is on record?
A. -1.36

Q. Try the molecule Cc1ccc(N=C=S)cc1
A. -1.72

Q. Now this one: Clc1cc(Cl)c2c(c1Cl)Oc1ccccc1O2
A. -4.53

Q. Please answer likewise for Clc1cccc(-c2cccc(Cl)c2)c1
A. -2.80

Q. Next up: CCCCCCCCN
A. 0.19

Q. And what about the molecule C=C(Cl)CSC(=S)N(CC)CC ?
A. -0.35

Q. Request: C=CCCCCCCC
A. -2.05

Q. And CC(Cl)(Cl)C(=O)O ?
A. 3.55

Q. Now consider CCC(C)(C)CO .
A. 1.87

Q. Quick one: O=C1CSC(=S)N1
A. 1.23

Q. What would you report for O=C(O)COc1ccc(Cl)cc1Cl ?
A. 0.49

Q. And what about the molecule CC(=O)OCC(=O)[C@@]1(O)CCC2C3CCC4=CC(=O)CC[C@]4(C)C3[C@@H](O)C[C@@]21C (stereo partly drawn) ?
A. -1.46

Q. Lookup Clc1cc(Cl)c(Cl)c(Cl)c1
A. -1.63

Q. Next entry: CC(C)(C)CO
A. 2.60

Q. What do you have for Cc1cc(C)cc(O)c1 ?
A. 1.60

Q. Another molecule to look at: c1ccc2c(c1)Oc1ccccc1O2
A. -2.31

Q. Can you check CCC(C)(C)c1ccc(O)cc1 next?
A. 0.01

Q. Same lookup for C=CCc1ccc(OC)cc1 , please.
A. 0.08

Q. Moving on to the next molecule: N[C@@H](Cc1cnc[nH]1)C(=O)O
A. 2.47

Q. Record: O=C1OCc2ccc([N+](=O)[O-])cc21
A. 0.35

Q. Could you do the same for Cc1cccc2c(C)cccc12 , please?
A. -1.76

Q. Same again, this time with Clc1ccc2c(c1)Oc1cc(Cl)ccc1O2
A. -4.18

Q. Same lookup for Clc1ccc(Cl)c(-c2ccccc2)c1 , please.
A. -2.30

Q. Record: CCC#CCC
A. 0.83

Q. Another molecule: CN(C)CC/C=C1\c2ccccc2COc2ccccc21
A. -0.95

Q. Entry to check: CCCCC(C)CC (stereo not drawn)
A. -2.16

Q. Follow-up item: Clc1ccc(Cl)c(-c2c(Cl)ccc(Cl)c2Cl)c1Cl
A. -4.90

Q. Here is the next molecule: CC(C)CCC(C)(C)C
A. -2.05

Q. Check C(=C\c1ccccc1)/CN1CCN(C(c2ccccc2)c2ccccc2)CC1 too.
A. 0.31

Q. Would you mind doing Cc1cccc2ccccc12 as well?
A. -0.74

Q. Record: C=CC1CC=CCC1 (stereo not drawn)
A. -0.34

Q. Also CCc1ccc(O)cc1 , if possible.
A. 1.53

Q. Same for C=CCN(CC=C)C(=O)CCl
A. 2.05

###

Conditions: 30 °C
The label depends only on solubility: met if it is at least 4 mM, not met if it is smaller.

Q. Form field: solubility at least 4 mM? Entry: CCCCC(=O)CCCC
A. not met

Q. Another molecule to check: COc1ccccc1C(=O)O
A. met

Q. Entry to check: COc1cnc(NS(=O)(=O)c2ccc(N)cc2)nc1
A. not met

Q. Next molecule: CCCCC1C(=O)N(c2ccccc2)N(c2ccc(O)cc2)C1=O (centres undefined)
A. not met

Q. Next up: Cc1cccc(Nc2ccccc2C(=O)O)c1C
A. not met

Q. // same read-out, input: CCCCn1c(=O)c2c(ncn2C)n(C)c1=O
A. met

Q. Cool, now Cc1c(N(C)C)c(=O)n(-c2ccccc2)n1C
A. met

Q. Input COP(=S)(OC)Oc1ccc(C#N)cc1
A. not met

Q. Check NS(=O)(=O)c1cc2c(cc1Cl)N=CNS2(=O)=O too.
A. not met

Q. Again, but for ClC(Cl)Br
A. met

Q. Now consider CCN(CC)CCOC(=O)c1ccc(N)cc1 and answer again.
A. met

Q. Here is the next molecule: COc1ccc([N+](=O)[O-])cc1
A. not met

Q. Also CN1c2ccccc2Sc2ccc(CC(=O)O)cc21 , if possible.
A. not met

Q. Next up: COC(=O)c1ccccc1O
A. met

###

Details: 25 °C
Binary call on solubility: yes from 8000 µM upward, no beneath that.

Q. Threshold query (solubility >= 8000 µM) on S=C=Nc1cccc(Cl)c1
A. no

Q. Please do the same for O=C(O)c1ccccc1C(=O)Nc1cccc2ccccc12 as well.
A. no

Q. # repeat for CCCCCCCCCc1ccc(O)cc1
A. no

Q. And what about the compound ClCCCCl ?
A. yes

Q. Would you kindly repeat that for O=C(O)c1cccc(Br)c1 ?
A. no

Q. Likewise for O=C(Nc1ccccc1)c1ccccc1O ?
A. no

Q. One more compound: CN(C)C(=O)Nc1ccccc1
A. yes

Q. Follow-up entry: CC(C)C(O)C(C)C
A. yes

Q. And what about the compound C=CCC1(CC(C)C)C(=O)NC(=O)NC1=O ?
A. no

Q. Next compound: ClCC1CO1 (stereo unspecified)
A. yes

Q. Let us now turn to COc1ccc2c(c1)c(CC(=O)O)c(C)n2C(=O)/C=C/c1ccccc1
A. no

Q. Okay, and NC(=O)c1ccccc1O ?
A. yes

Q. Another compound: COc1cc(-c2ccc(N)c(OC)c2)ccc1N
A. no

Q. Consider next the compound Cc1c2ccccc2c(C)c2ccccc12 in the same way.
A. no

Q. Lookup Cc1ccc(C)c2c(C)cccc12
A. no

Q. Same question for CCCC(C)=O please.
A. yes

###

Conditions: 25 °C
Quantity Kind: solubility (mM)
# value in mM; strip the unit string

Q. For C=CC#N , what is its reported solubility?
A. 1400

Q. Next compound: CC(=O)C(C)C
A. 706

Q. Now consider COP(=S)(OC)SCCSC(C)C .
A. 0.373

Q. Can you check Oc1c(Cl)cc(Cl)c(Cl)c1Cc1c(O)c(Cl)cc(Cl)c1Cl next?
A. 0.344

Q. // next record O=C(O)COc1ccc(Cl)cc1
A. 5.13

Q. Same again, this time with Clc1cccc2c1Oc1ccccc1O2
A. 0.00191

Q. Now try Cc1cc(=O)[nH]c(=S)[nH]1 .
A. 3.75

Q. Then NS(=O)(=O)c1cc2c(cc1C(F)(F)F)NC(Cc1ccccc1)NS2(=O)=O (stereo not given) ?
A. 0.256

Q. Ok, now Clc1c(Cl)c(Cl)c(-c2ccccc2)c(Cl)c1Cl
A. 1.23e-05

Q. What do we get for Cc1ccc(-c2ccccc2)cc1 ?
A. 0.0241

Q. Next record, please: CCCC(C(=O)O)C(=O)O
A. 4790

Q. What would you report for c1ccc2c(c1)CCN2 ?
A. 90.6

Q. What do you get for c1cnc2c(c1)ccc1cccnc12 ?
A. 14.9

Q. How about Clc1cc(Cl)cc(-c2cc(Cl)cc(Cl)c2)c1 ?
A. 4.22e-06

Q. Similarly, Cc1c2ccccc2cc2ccccc12 ?
A. 0.00136

Q. Quick one: CCCCC1(CC)C(=O)NC(=O)NC1=O
A. 23

Q. Next: CC(C)C(C)C
A. 0.261

Q. Another compound to check: C(=C\c1ccccc1)/c1ccccc1
A. 0.00161

Q. Please do the same for O=C(O)c1ccccc1F as well.
A. 51.4

Q. Note, next up: c1ccc(Cc2ccccc2)cc1
A. 0.0838

Q. How about O=C(Oc1ccccc1)c1ccccc1O ?
A. 0.7

Q. And for C[C@H]1c2cccc(O)c2C(=O)C2=C(O)[C@]3(O)C(=O)C(C(N)=O)=C(O)[C@@H](N(C)C)[C@@H]3[C@@H](O)[C@@H]21 ?
A. 1.42

Q. Then O=C(O)COc1c(Cl)ccc(Cl)c1Cl ?
A. 2.4

Q. Please answer likewise for C=C(c1ccccc1)c1ccccc1
A. 0.0366

Q. Follow-up item: Ic1ccc(I)cc1
A. 0.00424

Q. Next compound: CC(C)CCOC(=O)c1ccccc1O
A. 0.696

Q. Next compound: c1cc2cccc3c4cccc5cccc(c(c1)c23)c54
A. 1.59e-06

Q. Moving on to the next compound: CCCCC(N)C(=O)O (racemic)
A. 88.5

Q. Please give the result for CN1C(=O)C(C)(C2=CCCCC2)C(=O)N=C1O (stereo not given) too.
A. 1.84

Q. Can you handle CCCCCCCCCCCCCCCCCCCCCCCCCCCCCCCCCCCC next?
A. 3.35e-06
